MEASURED_ON: T1, CARD-11-CARD fused to the NF-kB activation domain (pCMV-CARD-11/AD) (mouse; human, UniProt Q04207 364-549)
T1 construct: range 364-550; Only the CARD domain of CARD-11 stood in the assay; also called CARD of CARD-11
T1 sequence: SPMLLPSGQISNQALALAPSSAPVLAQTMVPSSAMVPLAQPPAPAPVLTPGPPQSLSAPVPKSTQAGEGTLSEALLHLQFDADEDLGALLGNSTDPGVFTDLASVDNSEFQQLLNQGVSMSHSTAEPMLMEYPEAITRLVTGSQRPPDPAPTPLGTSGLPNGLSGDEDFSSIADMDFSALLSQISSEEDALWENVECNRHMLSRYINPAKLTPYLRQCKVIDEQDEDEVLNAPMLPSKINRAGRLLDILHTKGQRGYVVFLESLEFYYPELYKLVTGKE
EXPERIMENT: mammalian two-hybrid, 293T cells
MEASURED_METRIC: binding result

BINDER | OBSERVED_RESULT
ARC CARD domain (residues 1-110) in pCMV-BD (other, UniProt P04386 1-147, looked up, range 1-147;range 1-110; Member of the two-hybrid CARD panel) MKLLSSIEQACDICRLKKLKCSKEKPKCAKCLKNNWECRYSPKTKRSPLTRAHLTEVESRLERLEQLFLLIFPREDLDMILKMDSLQDIKALLTGLFVQDNVNKDAVTDRLASVETDMPLTLRQHRISATSSSEESSNKGQRQLTVSMGNAQERPSETIDRERKRLVETLQADSGLLLDALLARGVLTGPEYEALDALPDAERRVRRLLLLVQGKGEAACQELLRCAQRTAGAPDPAWDWQHVGPGYRDRSYDPPCP | no binding
ASC CARD domain (residues 92-195) in pCMV-BD (other, UniProt P04386 1-147, looked up, range 1-147;range 92-195; Member of the two-hybrid CARD panel) MKLLSSIEQACDICRLKKLKCSKEKPKCAKCLKNNWECRYSPKTKRSPLTRAHLTEVESRLERLEQLFLLIFPREDLDMILKMDSLQDIKALLTGLFVQDNVNKDAVTDRLASVETDMPLTLRQHRISATSSSEESSNKGQRQLTVSGSGAAPAGIQAPPQSAAKPGLHFIDQHRAALIARVTNVEWLLDALYGKVLTDEQYQAVRAEPTNPSKMRKLFSFTPAWNWTCKDLLLQALRESQSYLVEDLERS | no binding
RAIDD CARD domain (residues 1-108) in pCMV-BD (other, UniProt P04386 1-147, looked up, range 1-147;range 1-108; Member of the two-hybrid CARD panel) MKLLSSIEQACDICRLKKLKCSKEKPKCAKCLKNNWECRYSPKTKRSPLTRAHLTEVESRLERLEQLFLLIFPREDLDMILKMDSLQDIKALLTGLFVQDNVNKDAVTDRLASVETDMPLTLRQHRISATSSSEESSNKGQRQLTVSMEARDKQVLRSLRLELGAEVLVEGLVLQYLYQEGILTENHIQEINAQTTGLRKTMLLLDILPSRGPKAFDTFLDSLQEFPWVREKLKKAREEAMTDLPAGDRLTGIPS | no binding

Each recorded value in this set is attributed to patent US20030113787A1.
